molecular target: MINK1 (human); assay: radiometric filter-binding kinase assay, Kinase HotSpot; settings: compound 0.5 µM; ATP 10 µM
Please provide measured residual activity for the entries that follow.
Supply the numeric figure in %, leaving out any unit text.

# return residual activity of Nc1ccc2ncnc(NCCc3ccc(Oc4ccccc4)cc3)c2c1 (system: MINK1 (human))
95.4

# return residual activity of Cc1ccc(S(=O)(=O)/C=C/C#N)cc1 (system: MINK1 (human))
111

# return residual activity of COc1ccc(COc2ccc(Cc3cnc(N)nc3N)cc2OC)cc1 (system: MINK1 (human))
86.5

# return residual activity of Nc1cccc(-c2cc3c(Oc4cccc(O)c4)ncnc3[nH]2)c1 (system: MINK1 (human))
34.7

# return residual activity of O=C1NC(=O)c2c1c1c3ccccc3n3c1c1c2c2ccccc2n1C1CCC3O1 (system: MINK1 (human))
0.901

# return residual activity of O=C(Nc1cccc(Nc2nccc(Nc3cccc(C(F)(F)F)c3)n2)c1)C1CC1 (system: MINK1 (human))
108

# return residual activity of CNC(=O)c1cc(Oc2ccc(NC(=O)Nc3ccc(Cl)c(C(F)(F)F)c3)cc2)ccn1 (system: MINK1 (human))
108

# return residual activity of N#CC(C#N)=C(N)/C(C#N)=C/c1ccc(O)cc1 (system: MINK1 (human))
97.7

# return residual activity of O=S(=O)(c1cccc2cnccc12)N1CCCNCC1 (system: MINK1 (human))
96.6

# return residual activity of c1ccc(-c2n[nH]cc2-c2ccnc3ccccc23)nc1 (system: MINK1 (human))
84.1

# return residual activity of CC(C)N(CCC(=O)c1ccc2ccccc2c1)Cc1ccccc1 (system: MINK1 (human))
101

# return residual activity of CCOC(=O)c1c(C)[nH]c(/C=C2\C(=O)Nc3ccccc32)c1C (system: MINK1 (human))
88.9

# return residual activity of Cc1ccc(NC2=CC(=O)c3sc(C)nc3C2=O)cc1 (system: MINK1 (human))
101

# return residual activity of O=C1Nc2ccc(Cl)cc2/C1=C/c1cc(Cl)c(O)c(Cl)c1 (system: MINK1 (human))
22.4

# return residual activity of CCN(CC)C(=O)c1ccc(Nc2nc(OCC3CCCCC3)c3nc[nH]c3n2)cc1 (system: MINK1 (human))
88.5

# return residual activity of CC[n+]1c(/C=C/N(C)c2ccccc2)n(-c2ccccc2)c2ccc(-c3nc4ccccc4s3)cc21 (system: MINK1 (human))
99

# return residual activity of CCCC(=O)Oc1ccc2[nH]c(C(=O)c3cc4ccccc4[nH]3)cc2c1 (system: MINK1 (human))
93.8

# return residual activity of CC#CC(=O)Nc1cc2c(Nc3ccc(F)c(Cl)c3)ncnc2cn1 (system: MINK1 (human))
91.9

# return residual activity of O=c1cc(N2CCOCC2)oc2c1ccc1ccccc12 (system: MINK1 (human))
96

# return residual activity of CNc1cc2c(Nc3cccc(Br)c3)ncnc2cn1 (system: MINK1 (human))
91.9

# return residual activity of CCN(CC)CCNC(=O)c1c(C)[nH]c(/C=C2\C(=O)Nc3ccc(Cl)cc32)c1C (system: MINK1 (human))
4.4

# return residual activity of O=C1NC(=O)/C(=C/c2ccc3c(c2)OC(F)(F)O3)S1 (system: MINK1 (human))
90.1

# return residual activity of N#C/C(=C(/N)Sc1ccc(N)cc1)c1ccccc1C(F)(F)F (system: MINK1 (human))
104

# return residual activity of Cc1ccc(Nc2nccc(N(C)c3ccc4c(C)n(C)nc4c3)n2)cc1S(N)(=O)=O (system: MINK1 (human))
73.7

# return residual activity of COc1ccc2c(c[n+](C)c3c4cc5c(cc4ccc23)OCO5)c1OC (system: MINK1 (human))
97.5

# return residual activity of COc1cc2ncnc(Nc3cccc(Cl)c3)c2cc1OC (system: MINK1 (human))
83.1

# return residual activity of Oc1cccc(-c2nc(N3CCOCC3)c3oc4ncccc4c3n2)c1 (system: MINK1 (human))
96
